Just for reference, patent US8975263B2 is where these values come from.

# Tested on: C57BL/6J mice
# Experiment: Oral glucose tolerance test
# Assay type: in vivo
# Test settings: male C57BL/6J mice, fasted overnight; oral gavage 10 mg/kg; solvent 0.5% MC; glucose 3 g/kg orally 30 minutes after compound; area under the curve of blood glucose level relative to control group
Listed next: entries and their corresponding Blood glucose lowering rate (%).

{"Molecule": "COc1ccc(-c2ccc(N)c(C(=O)O)n2)cc1C1C2=C(CC(C)(C)CC2=O)OC2=C1C(=O)CC(C)(C)C2 [Example 51]", "Scale unit": "%", "Blood glucose lowering rate (%)": 39}
{"Molecule": "CC(C)(C)N.COc1ccc(-c2cc(C)cc(C(=O)NS(C)(=O)=O)n2)c(C)c1C1C2=C(CC(C)(C)CC2=O)OC2=C1C(=O)CC(C)(C)C2 [Example 42]", "Scale unit": "%", "Blood glucose lowering rate (%)": 44}
{"Molecule": "COc1ccc(-c2cc(C)cc(C(=O)O)n2)c(C)c1C1C2=C(CC(C)(C)CC2=O)OC2=C1C(=O)CC(C)(C)C2 [Example 32]", "Scale unit": "%", "Blood glucose lowering rate (%)": 59}
{"Molecule": "COc1ccc(-c2ccc(N)c(C(=O)NS(C)(=O)=O)n2)cc1C1C2=C(CC(C)(C)CC2=O)OC2=C1C(=O)CC(C)(C)C2 [Example 52]", "Scale unit": "%", "Blood glucose lowering rate (%)": 44}
{"Molecule": "COCCOc1ccc(-c2ccc(OC)c(C3C4=C(CC(C)(C)CC4=O)OC4=C3C(=O)CC(C)(C)C4)c2C)nc1C(=O)O [Example 29]", "Scale unit": "%", "Blood glucose lowering rate (%)": 32}
{"Molecule": "COc1ccc(-c2cccc(C(=O)NS(C)(=O)=O)n2)c(C)c1C1C2=C(CC(C)(C)CC2=O)OC2=C1C(=O)CC(C)(C)C2.COc1ccc(-c2cccc(C(=O)NS(C)(=O)=O)n2)c(C)c1C1C2=C(CC(C)(C)CC2=O)OC2=C1C(=O)CC(C)(C)C2.[Ca] [Example 20]", "Scale unit": "%", "Blood glucose lowering rate (%)": 41}
{"Molecule": "COc1ccc(-c2ccc(N)c(C(=O)O)n2)c(C)c1C1C2=C(CC(C)(C)CC2=O)OC2=C1C(=O)CC(C)(C)C2 [Example 48]", "Scale unit": "%", "Blood glucose lowering rate (%)": 62}
{"Molecule": "COc1ccc(-c2cc3c(c(C(=O)O)n2)CCCC3)c(C)c1C1C2=C(CC(C)(C)CC2=O)OC2=C1C(=O)CC(C)(C)C2 [Example 47]", "Scale unit": "%", "Blood glucose lowering rate (%)": 56}
{"Molecule": "COc1ccc(-c2cc(C)c(C)c(C(=O)NS(C)(=O)=O)n2)c(C)c1C1C2=C(CC(C)(C)CC2=O)OC2=C1C(=O)CC(C)(C)C2 [Example 44]", "Scale unit": "%", "Blood glucose lowering rate (%)": 44}
{"Molecule": "COc1ccc(-c2ccc(C)c(C(=O)NS(C)(=O)=O)n2)c(C)c1C1C2=C(CC(C)(C)CC2=O)OC2=C1C(=O)CC(C)(C)C2.COc1ccc(-c2ccc(C)c(C(=O)NS(C)(=O)=O)n2)c(C)c1C1C2=C(CC(C)(C)CC2=O)OC2=C1C(=O)CC(C)(C)C2.[Ca] [Example 21]", "Scale unit": "%", "Blood glucose lowering rate (%)": 54}
{"Molecule": "CNc1ccc(-c2ccc(OC)c(C3C4=C(CC(C)(C)CC4=O)OC4=C3C(=O)CC(C)(C)C4)c2C)nc1C(=O)O [Example 53]", "Scale unit": "%", "Blood glucose lowering rate (%)": 64}
{"Molecule": "COc1ccc(-c2ccc(C)c(C(=O)NS(C)(=O)=O)n2)c(C)c1C1C2=C(CC(C)(C)CC2=O)OC2=C1C(=O)CC(C)(C)C2 [Example 16]", "Scale unit": "%", "Blood glucose lowering rate (%)": 45}
{"Molecule": "CCc1ccc(-c2ccc(OC)c(C3C4=C(CC(C)(C)CC4=O)OC4=C3C(=O)CC(C)(C)C4)c2C)nc1C(=O)O [Example 13]", "Scale unit": "%", "Blood glucose lowering rate (%)": 61}
{"Molecule": "COc1ccc(-c2ccc(C)c(C(=O)NS(C)(=O)=O)n2)c(C)c1C1C2=C(CC(C)(C)CC2=O)OC2=C1C(=O)CC(C)(C)C2.[Na] [Example 19]", "Scale unit": "%", "Blood glucose lowering rate (%)": 40}
{"Molecule": "CCc1ccc(-c2ccc(OC)c(C3C4=C(CC(C)(C)CC4=O)OC4=C3C(=O)CC(C)(C)C4)c2C)nc1C(=O)NS(C)(=O)=O [Example 17]", "Scale unit": "%", "Blood glucose lowering rate (%)": 43}
{"Molecule": "COc1ccc(-c2cc(C)cc(C(=O)NS(C)(=O)=O)n2)c(C)c1C1C2=C(CC(C)(C)CC2=O)OC2=C1C(=O)CC(C)(C)C2 [Example 40]", "Scale unit": "%", "Blood glucose lowering rate (%)": 38}
{"Molecule": "CC(C)(C)N.COc1ccc(-c2ccc(C)c(C(=O)NS(C)(=O)=O)n2)c(C)c1C1C2=C(CC(C)(C)CC2=O)OC2=C1C(=O)CC(C)(C)C2 [Example 41]", "Scale unit": "%", "Blood glucose lowering rate (%)": 44}
{"Molecule": "C#Cc1ccc(-c2ccc(OC)c(C3C4=C(CC(C)(C)CC4=O)OC4=C3C(=O)CC(C)(C)C4)c2C)nc1C(=O)O [Example 12]", "Scale unit": "%", "Blood glucose lowering rate (%)": 31}
{"Molecule": "CC(C)(C)N.COc1ccc(-c2cccc(C(=O)NS(C)(=O)=O)n2)c(C)c1C1C2=C(CC(C)(C)CC2=O)OC2=C1C(=O)CC(C)(C)C2 [Example 18]", "Scale unit": "%", "Blood glucose lowering rate (%)": 31}
{"Molecule": "COc1ccc(-c2nc(C(=O)O)ccc2C)c(C)c1C1C2=C(CC(C)(C)CC2=O)OC2=C1C(=O)CC(C)(C)C2 [Example 34]", "Scale unit": "%", "Blood glucose lowering rate (%)": 58}
{"Molecule": "CCc1ccc(-c2ccc(OC)c(C3C4=C(CC(C)(C)CC4=O)OC4=C3C(=O)CC(C)(C)C4)c2)nc1C(=O)NS(C)(=O)=O [Example 46]", "Scale unit": "%", "Blood glucose lowering rate (%)": 47}
{"Molecule": "COc1ccc(-c2cc(C)c(C)c(C(=O)O)n2)c(C)c1C1C2=C(CC(C)(C)CC2=O)OC2=C1C(=O)CC(C)(C)C2 [Example 43]", "Scale unit": "%", "Blood glucose lowering rate (%)": 60}
{"Molecule": "COc1ccc(-c2ccnc(CO)n2)c(C)c1C1C2=C(CC(C)(C)CC2=O)OC2=C1C(=O)CC(C)(C)C2 [Example 76]", "Scale unit": "%", "Blood glucose lowering rate (%)": 33}
{"Molecule": "COc1ccc(-c2ccc(C)c(C(=O)NS(C)(=O)=O)n2)cc1C1C2=C(CC(C)(C)CC2=O)OC2=C1C(=O)CC(C)(C)C2 [Example 31]", "Scale unit": "%", "Blood glucose lowering rate (%)": 42}
